These data points were gathered from paper PMC125294.

- experimental_target: T1, Lewis rat MHC class II molecule, RT1.B^L (rat (Lewis), UniProt P20037 24-256; P29826 28-263)
- T1 sequence (looked up) 1: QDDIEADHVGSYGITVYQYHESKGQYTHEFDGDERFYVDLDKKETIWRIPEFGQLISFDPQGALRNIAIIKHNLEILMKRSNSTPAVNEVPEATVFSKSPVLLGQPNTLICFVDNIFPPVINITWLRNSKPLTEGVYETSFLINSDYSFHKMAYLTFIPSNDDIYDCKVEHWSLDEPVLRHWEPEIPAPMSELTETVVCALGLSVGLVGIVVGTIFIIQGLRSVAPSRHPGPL
- T1 sequence (looked up) 2: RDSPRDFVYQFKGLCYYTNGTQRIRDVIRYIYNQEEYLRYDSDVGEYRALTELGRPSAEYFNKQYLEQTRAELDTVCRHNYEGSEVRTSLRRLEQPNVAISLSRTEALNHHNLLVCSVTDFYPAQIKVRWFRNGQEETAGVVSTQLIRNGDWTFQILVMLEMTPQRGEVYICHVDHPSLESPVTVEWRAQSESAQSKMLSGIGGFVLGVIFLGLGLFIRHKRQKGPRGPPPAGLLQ
- test_description: competitive MHC class II-peptide binding assay
pIC50: −log10 of the molar value. Ends that are not written are not given here.
Here, each record is paired with measured pIC50 data.

VKEGHSPPDDVDIVI-NH2 [Human MMP-16_(539-553) peptide] = 3.89 to 4.19
FLYFFSGSSQLEFDP-NH2 [Rat MMP-3_(444-458) peptide] = ≥ 5.10

## Input Entry SAFWPSLPSGLDAAY-NH2 [Rat MMP-10_(329-343) peptide] : reported pIC50 = ?
## Output 3.59 to 3.89
